- Test system: Mus musculus
- assayName: Average change in weight is tested in mice at a dose of 16 mg/kg
- Type: functional
- Set-up: unit not given here
Measured Activity, listed per entry.
Write the value as a bare number.

The examples below pair each entry with its known result.
COC(C(=O)C(O)C(C)O)C1Cc2cc3cc(OC4CC(OC(C)=O)C(OC5CC(O)C(OC)C(C)O5)C(C)O4)c(Br)c(O)c3c(O)c2C(=O)C1OC1CC(OC2CC(OC3CC(C)(O)C(OC(=O)C(C)C)C(C)O3)C(O)C(C)O2)C(O)C(C)O1 (centres undefined) :: 0.1
COC(C(=O)C1OC2(CCCCC2)OC1C)C1Cc2cc3cc(OC4CC(OC(C)=O)C(OC5CC(O)C(OC)C(C)O5)C(C)O4)cc(O)c3c(O)c2C(=O)C1OC1CC(OC2CC(OC3CC(C)(O)C(OC(=O)C(C)C)C(C)O3)C(O)C(C)O2)C(O)C(C)O1 (centres undefined) :: 0.7
COC(C(=O)C1OC(C)(C)OC1C)C1Cc2cc3cc(OC4CC(OC(C)=O)C(OC5CC(O)C(OC)C(C)O5)C(C)O4)cc(O)c3c(O)c2C(=O)C1OC1CC(OC2CC(OC3CC(C)(O)C(OC(=O)C(C)C)C(C)O3)C(O)C(C)O2)C(O)C(C)O1 (centres undefined) :: 1.3

# evaluate next
stdin: Would you kindly share the measured Activity for COC(/C(=N/NC(N)=O)C(O)C(C)O)C1Cc2cc3cc(OC4CC(OC(C)=O)C(OC5CC(O)C(OC)C(C)O5)C(C)O4)cc(O)c3c(O)c2C(=O)C1OC1CC(OC2CC(OC3CC(C)(O)C(OC(=O)C(C)C)C(C)O3)C(O)C(C)O2)C(O)C(C)O1 (centres undefined) ?
stdout: -2.3

----------
Measured Activity, listed per entry.
- System: Mus musculus
- assayName: Average change in weight is tested in mice at a dose of 1 mg/kg
- Format: functional
- Parameters: unit not given here
Write the value as a bare number.

stdin: Would you kindly share the measured Activity for COc1cc(OC2CC(OC(C)=O)C(OC3CC(O)C(OC)C(C)O3)C(C)O2)cc2cc3c(c(O)c12)C(=O)C(OC1CC(OC2CC(OC4CC(C)(O)C(OC(=O)C(C)C)C(C)O4)C(O)C(C)O2)C(O)C(C)O1)C(C(OC)C(=O)C(O)C(C)O)C3 (stereo unspecified) ?
stdout: 1.3

stdin: Same question, COC(C(=O)C(O)C(C)O)C1Cc2cc3cc(OC4CC(OC(C)=O)C(OC5CC(O)C(OC)C(C)O5)C(C)O4)cc(O)c3c(O)c2C(=O)C1OC1CC(OC2CC(OC3CC(C)(O)C(OC(=O)C(C)C)C(C)O3)C(O)C(C)O2)C(O)C(C)O1 (stereo unspecified) this time
stdout: 0.3

----------
Measured T/C, listed per entry.
- Test system: P388
- assayName: Tested on P-388 Leukemia for median survival time treated to median survival time control when administered intraperitoneally at a dose of 2 mg/kg
- Assay type: functional, Mus musculus
- particulars: route intraperitoneal
# value in %; strip the unit string

The examples below pair each entry with its known result.
COC(/C(=N/NC(N)=O)C(O)C(C)O)C1Cc2cc3cc(OC4CC(OC(C)=O)C(OC5CC(O)C(OC)C(C)O5)C(C)O4)cc(O)c3c(O)c2C(=O)C1OC1CC(OC2CC(OC3CC(C)(O)C(OC(=O)C(C)C)C(C)O3)C(O)C(C)O2)C(O)C(C)O1 (stereo not drawn) :: 85
COC(C(=O)C1OC(C)(C)OC1C)C1Cc2cc3cc(OC4CC(OC(C)=O)C(OC5CC(O)C(OC)C(C)O5)C(C)O4)cc(O)c3c(O)c2C(=O)C1OC1CC(OC2CC(OC3CC(C)(O)C(OC(=O)C(C)C)C(C)O3)C(O)C(C)O2)C(O)C(C)O1 (stereo not drawn) :: 117

# evaluate next
stdin: Please state recorded T/C (tested on P388) of COc1cc(OC2CC(OC(C)=O)C(OC3CC(O)C(OC)C(C)O3)C(C)O2)cc2cc3c(c(OC)c12)C(=O)C(OC1CC(OC2CC(OC4CC(C)(O)C(OC(=O)C(C)C)C(C)O4)C(O)C(C)O2)C(O)C(C)O1)C(C(OC)C(=O)C(O)C(C)O)C3 (stereo not drawn)
stdout: 115

----------
- Tested on: Mus musculus
- assayName: Average change in weight is tested in mice at a dose of 1 mg/kg
- Format: functional
- Set-up: unit not given here
metric: Activity
Write the value as a bare number.

The examples below pair each entry with its known result.
CO/N=C(\C(O)C(C)O)C(OC)C1Cc2cc3cc(OC4CC(OC(C)=O)C(OC5CC(O)C(OC)C(C)O5)C(C)O4)cc(O)c3c(O)c2C(=O)C1OC1CC(OC2CC(OC3CC(C)(O)C(OC(=O)C(C)C)C(C)O3)C(O)C(C)O2)C(O)C(C)O1 (centres undefined) :: 0.9
C/N=C(\C(O)C(C)O)C(OC)C1Cc2cc3cc(OC4CC(OC(C)=O)C(OC5CC(O)C(OC)C(C)O5)C(C)O4)cc(O)c3c(O)c2CC1OC1CC(OC2CC(OC3CC(C)(O)C(OC(=O)C(C)C)C(C)O3)C(O)C(C)O2)C(O)C(C)O1 (centres undefined) :: 0.3
COC(C(=O)C(O)C(C)O)C1Cc2cc3cc(OC4CC(OC(C)=O)C(OC5CC(O)C(OC)C(C)O5)C(C)O4)cc(O)c3c(O)c2CC1OC1CC(OC2CC(OC3CC(C)(O)C(OC(=O)C(C)C)C(C)O3)C(O)C(C)O2)C(O)C(C)O1 (centres undefined) :: 1.1

# evaluate next
stdin: Would you kindly share the measured Activity for C/N=C(\C(O)C(C)O)C(OC)C1Cc2cc3cc(OC4CC(OC(C)=O)C(OC5CC(O)C(OC)C(C)O5)C(C)O4)cc(O)c3c(O)c2C(=O)C1OC1CC(OC2CC(OC3CC(C)(O)C(OC(=O)C(C)C)C(C)O3)C(O)C(C)O2)C(O)C(C)O1 (centres undefined) ?
stdout: 1.1
